Target: Cyclin-dependent kinase 1/cyclin B1 (Homo sapiens) (UniProt P06493+P14635)
Sequence (P06493 whole entry, looked up): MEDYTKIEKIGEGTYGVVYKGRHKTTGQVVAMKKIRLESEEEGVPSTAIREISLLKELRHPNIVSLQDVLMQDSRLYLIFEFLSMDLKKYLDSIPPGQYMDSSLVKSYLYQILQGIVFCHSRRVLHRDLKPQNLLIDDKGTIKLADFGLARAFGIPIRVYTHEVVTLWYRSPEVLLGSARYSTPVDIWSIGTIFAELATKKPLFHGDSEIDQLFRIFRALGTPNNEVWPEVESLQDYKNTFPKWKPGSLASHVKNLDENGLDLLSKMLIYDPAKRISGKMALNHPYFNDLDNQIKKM
Sequence (P14635 whole entry, looked up): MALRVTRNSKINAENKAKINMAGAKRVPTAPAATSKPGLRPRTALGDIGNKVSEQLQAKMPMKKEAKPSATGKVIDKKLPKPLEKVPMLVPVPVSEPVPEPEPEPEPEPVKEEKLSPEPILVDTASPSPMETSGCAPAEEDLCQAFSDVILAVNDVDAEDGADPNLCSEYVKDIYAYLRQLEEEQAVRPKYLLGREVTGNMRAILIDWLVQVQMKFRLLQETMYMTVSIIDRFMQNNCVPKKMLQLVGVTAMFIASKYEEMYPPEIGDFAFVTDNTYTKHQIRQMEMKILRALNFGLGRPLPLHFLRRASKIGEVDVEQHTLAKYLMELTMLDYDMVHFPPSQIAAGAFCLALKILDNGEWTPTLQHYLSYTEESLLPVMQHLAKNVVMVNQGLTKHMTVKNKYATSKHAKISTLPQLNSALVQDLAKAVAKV
Test: Inhibition of human CDK1/Cyclin B assessed as residual enzyme activity at 3 uM after 40 mins by scintillation counting
Format: protein-complex assay

>  <Smiles record>
CN1C(=O)/C(=C2\Nc3ccccc3\C2=N/O)c2cccnc21

>  <Tested on>
Cyclin-dependent kinase 1/cyclin B1 (Homo sapiens) (UniProt P06493+P14635)

>  <Activity / %>
97

$$$$
>  <Smiles record>
CN1C(=O)/C(=C2\Nc3ccccc3C2=O)c2cccnc21

>  <Tested on>
Cyclin-dependent kinase 1/cyclin B1 (Homo sapiens) (UniProt P06493+P14635)

>  <Activity / %>
105

$$$$
>  <Smiles record>
O=C1Nc2ncccc2/C1=C1/Nc2ccccc2/C1=N\O

>  <Tested on>
Cyclin-dependent kinase 1/cyclin B1 (Homo sapiens) (UniProt P06493+P14635)

>  <Activity / %>
69

$$$$
>  <Smiles record>
CN1C(=O)/C(=C2/C(=O)N(C)c3ncccc32)c2cccnc21

>  <Tested on>
Cyclin-dependent kinase 1/cyclin B1 (Homo sapiens) (UniProt P06493+P14635)

>  <Activity / %>
95

$$$$
>  <Smiles record>
O=C1Nc2ncccc2/C1=C1/Nc2ccccc2C1=O

>  <Tested on>
Cyclin-dependent kinase 1/cyclin B1 (Homo sapiens) (UniProt P06493+P14635)

>  <Activity / %>
65

$$$$
>  <Smiles record>
O=C1Nc2cc(Br)ccc2/C1=C1/Nc2ccccc2/C1=N\O

>  <Tested on>
Cyclin-dependent kinase 1/cyclin B1 (Homo sapiens) (UniProt P06493+P14635)

>  <Activity / %>
21

$$$$
